# credit: the Human Domainome abundance scans (Beltran et al. 2025)

B1: Advillin, residues 785 to 819; numbered along this chain, O75366 (parent)
chain: LSEQDFVSVFGITRGQFAALPGWKQLQMKKEKGLF

# Variants of: B1
# assay-procedure: abundance fitness (aPCA) (normalised: wild type 0, dead -1); higher = more abundant; growth selection in yeast, the domain comes from the species named
# condition-label: Homo sapiens
For each of the variants below, state its abundance fitness.
Number only, no unit.

Could you please provide reported abundance fitness for LSEQDFVSVFGITRGQFAALPGWKQLQMKKEKGLL [F35L] ? Thanks!
0.197

Give a short answer stating reported abundance fitness for LSEQDFVSVFGITRGQFAALPGWKQLQMKKEKSLF [G33S] .
-0.108

Complete the entry with abundance fitness for LSEQDFVSVFGITRGQFAALPGWKQLQMKGEKGLF [K30G]
-0.159

Output measured abundance fitness for this item: LSEQDFVSVFGITDGQFAALPGWKQLQMKKEKGLF [R14D]
-0.431

Name the recorded abundance fitness of the item LSEQDFVSVFGITRGQFAALPGNKQLQMKKEKGLF [W23N] in your answer.
-0.319

Look up and report measured abundance fitness for this entry: LSEQDFVSVFGITRGQFAALPGWKQLQIKKEKGLF [M28I]
-0.619

Determine its reported abundance fitness: LSEQDFVSVFGITRGQFAALPGWKQLQMPKEKGLF [K29P]
-0.497

Specify abundance fitness for LSEQDFVSVFGITRLQFAALPGWKQLQMKKEKGLF [G15L] and stop.
-0.215

Identify abundance fitness associated with the variant LSEQDFVSVFGITRIQFAALPGWKQLQMKKEKGLF [G15I]
0.042

Item LSEQDFMSVFGITRGQFAALPGWKQLQMKKEKGLF [V7M] : provide abundance fitness
-0.291

Tell me measured abundance fitness for LSEGDFVSVFGITRGQFAALPGWKQLQMKKEKGLF [Q4G] please.
-0.001

Given the variant LSEQDFVSVFGITRGQFAALIGWKQLQMKKEKGLF [P21I] , write its reported abundance fitness.
-0.536

// fetch abundance fitness given entry LSEQDFVSVFGITRGQFAALPQWKQLQMKKEKGLF [G22Q]
0.01

Quote abundance fitness reported for LSEQDFVSVFGITRGQFAALPGWKQLQMQKEKGLF [K29Q] please.
0.026

Answer with reported abundance fitness of LSEQDFVSVFGITRGQFASLPGWKQLQMKKEKGLF [A19S]
-0.068

Respond only with abundance fitness recorded for LSEQDFVSVFGITRGQFAALPGWKQLQMKKHKGLF [E31H]
-0.563

Report measured abundance fitness; entry is LSEQDFVSVFGITRGQFAALDGWKQLQMKKEKGLF [P21D]
-0.54

For LSEQDFASVFGITRGQFAALPGWKQLQMKKEKGLF [V7A] , write its abundance fitness.
-0.149

Find the measured abundance fitness of LSEQDFVSVFGITRGQFAALPGWKQLQCKKEKGLF [M28C] and report it.
-0.75

Identify abundance fitness associated with the variant LSEQDFVSVFGITRGQFAADPGWKQLQMKKEKGLF [L20D]
-0.113

Tell me abundance fitness reported for LSEQDFVFVFGITRGQFAALPGWKQLQMKKEKGLF [S8F]
-0.476

Give abundance fitness for LSCQDFVSVFGITRGQFAALPGWKQLQMKKEKGLF [E3C]
-0.421

Tell me abundance fitness reported for LSEQDFVSVFGGTRGQFAALPGWKQLQMKKEKGLF [I12G]
-0.429

In one line, give reported abundance fitness of the entry LSEQDFVSVFGITRGQFAALPGWKQTQMKKEKGLF [L26T] .
-0.075

Give the value of abundance fitness reported for the following: LSEQDFVSVFGITRGQFAALPDWKQLQMKKEKGLF [G22D]
-0.104

Query abundance fitness for LSEQDFVSVFGITRGQFAALPGWKQLQMKAEKGLF [K30A]
0.078

Supply recorded abundance fitness for LSEQDFVSVFGITRGQFAALPGSKQLQMKKEKGLF [W23S] here.
-0.092

// Input: LSEQDFVSVFGITRGQFAAKPGWKQLQMKKEKGLF [L20K] . Output its abundance fitness only.
-0.639

Please give the documented abundance fitness of LSEQDFVSVFGITRGQFAANPGWKQLQMKKEKGLF [L20N]
-0.248

Quickly give me recorded abundance fitness for LSEQDFVSVFGITRGQEAALPGWKQLQMKKEKGLF [F17E]
-0.33

// Input: LSEQDFVSVFGITRGQFAALPGIKQLQMKKEKGLF [W23I] . Output its abundance fitness only.
-0.284

Please list abundance fitness recorded for the variant LSEQDFVSVFGITRGQFAALPGWPQLQMKKEKGLF [K24P]
-0.475

Dear colleague, please send me the reported abundance fitness for LSEQDFVSVFGITRGQFAACPGWKQLQMKKEKGLF [L20C] when you can.
-0.847

Tell me its abundance fitness given LSEQDFVSVFGITRGQFCALPGWKQLQMKKEKGLF [A18C] as the entry.
-0.079

Complete the entry with abundance fitness for LSEQDFVSVFGITRGQFAALPGGKQLQMKKEKGLF [W23G]
-0.238

Annotate the variant LSEQDFVSRFGITRGQFAALPGWKQLQMKKEKGLF [V9R] with its measured abundance fitness.
-0.162

Let me know recorded abundance fitness for LSEQDFVSVFGITRGQFAALPKWKQLQMKKEKGLF [G22K] , thanks.
0.064
